Kindly state IC50 for each of the entries shown.
target-entity: hA2b (Homo sapiens (Human), UniProt P29275)
Sequence (P29275 whole entry): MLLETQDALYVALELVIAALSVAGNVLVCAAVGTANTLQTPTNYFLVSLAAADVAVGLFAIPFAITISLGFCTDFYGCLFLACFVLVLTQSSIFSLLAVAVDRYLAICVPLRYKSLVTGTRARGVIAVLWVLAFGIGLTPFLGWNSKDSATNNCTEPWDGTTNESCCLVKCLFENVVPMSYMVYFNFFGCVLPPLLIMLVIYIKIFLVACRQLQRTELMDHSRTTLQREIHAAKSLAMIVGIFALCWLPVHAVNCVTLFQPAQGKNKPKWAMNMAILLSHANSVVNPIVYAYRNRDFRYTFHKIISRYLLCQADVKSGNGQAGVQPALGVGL
assay-comment: cAMP inhibition assay in hA2b/CHO cells
Assay type: cell-based
stated-conditions: adenosine stimulation, read-out: cAMP & FLIPR IC50 (nM) hA2b
Protocol: hA2a/CHO, hA2b/CHO and mA2a/CHO (Genscript) were plated at 5×10^3 cells/well into 384-well polystyrene plates at the day of experiment. Compounds were pre-incubated with cells for 30 min at 37° C., 5% CO2. Then […] adenosine was added to the cells and incubated for 30 min at 37° C., 5% CO2. Detection reagent (CISBIO) was added and the plates were incubated for 60 min at room temperature. The signal was captured by Envision.
One number for each entry, in nM.

Solved cases (3 shown):
[[record]]
compound_structure = "Cn1cc(-c2c(-c3cc(F)cc(F)c3)nc(N)n3nc(Cc4ncccc4F)nc23)ccc1=O"
unit_text = "nM"
recorded_value = 253

[[record]]
compound_structure = "Cc1cc(-c2c(-c3ncco3)nc(N)n3nc(Cc4c(F)cccc4F)nc23)cc(C2CC2)n1"
unit_text = "nM"
recorded_value = 10000

[[record]]
compound_structure = "Cc1cnc2ccc(-c3c(N4CCOCC4)nc(N)n4nc(Cc5ncccc5F)nc34)cn12"
unit_text = "nM"
recorded_value = 121


Could you now look at the following compound, please?
Query: Bench note: what IC50 did Cn1cc(-c2c(-c3nccs3)nc(N)n3nc(Cc4c(F)cccc4F)nc23)ccc1=O show?
Response: 97

###

target-entity: hA1 (Homo sapiens (Human))
Sequence (P30542 whole entry): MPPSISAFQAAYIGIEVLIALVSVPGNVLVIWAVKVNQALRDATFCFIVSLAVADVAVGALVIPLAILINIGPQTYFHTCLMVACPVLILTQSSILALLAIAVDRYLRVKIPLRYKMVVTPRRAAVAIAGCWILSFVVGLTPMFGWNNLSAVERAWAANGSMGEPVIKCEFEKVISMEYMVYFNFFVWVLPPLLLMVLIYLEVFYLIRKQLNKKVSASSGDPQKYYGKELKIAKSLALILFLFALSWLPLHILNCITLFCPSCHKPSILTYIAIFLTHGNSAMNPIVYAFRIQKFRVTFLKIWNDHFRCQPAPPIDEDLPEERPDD
assay-comment: FLIPR inhibition assay in hADORA1/CHO (hA1 expressing) cells
Format: cell-based
stated-conditions: hADORA1/CHO cells, FLIPR calcium, adenosine stimulation; read-out: cAMP & FLIPR IC50 (nM) hA1
readout-label: IC50 (nM)
Numbers only, in nM.

[[record]]
molecule = "Cn1cc(-c2c(-c3ccc(F)cc3)nc(N)n3nc(Cc4c(F)cccc4F)nc23)ccc1=O [Example 9]"
recorded_value = 20


Give IC50 for each listed item.
1. COc1ccccc1-c1nc(N)n2nc(Cc3ncccc3F)nc2c1-c1ccc(=O)n(C)c1 [Example 98]
2. Cn1cc(-c2c(-c3ccc(F)cc3)nc(N)n3nc(Cc4cccc(N)n4)nc23)ccc1=O [Example 35]
3. Cn1cc(-c2c(Cl)nc(N)n3nc(Cc4c(F)cccc4F)nc23)ccc1=O [Example 28]

Response:
[333, 35, 1150]

###

target-entity: hA1 (Homo sapiens (Human))
assay-comment: FLIPR inhibition assay in hADORA1/CHO (hA1 expressing) cells
Assay type: cell-based
stated-conditions: hADORA1/CHO cells, FLIPR calcium, adenosine stimulation; read-out: cAMP & FLIPR IC50 (nM) hA1
# if measured IC50 < 30 nM: TRUE  # else: FALSE

[[record]]
compound_structure = "Cn1cc(-c2c(-c3ccccc3Cl)nc(N)n3nc(Cc4ncccc4F)nc23)ccc1=O"
target_entity = "hA1 (Homo sapiens (Human))"
assigned_category = "FALSE"

[[record]]
compound_structure = "Cc1cc(-c2c(-c3ncco3)nc(N)n3nc(Cc4c(F)cccc4F)nc23)cc(C)n1"
target_entity = "hA1 (Homo sapiens (Human))"
assigned_category = "FALSE"

[[record]]
compound_structure = "Cn1cc(-c2c(-c3ccc(F)cc3)nc(N)n3nc(Cc4nccs4)nc23)ccc1=O"
target_entity = "hA1 (Homo sapiens (Human))"
assigned_category = "TRUE"

[[record]]
compound_structure = "CC(C)n1cc(-c2c(-c3ncco3)nc(N)n3nc(Cc4c(F)cccc4F)nc23)ccc1=O"
target_entity = "hA1 (Homo sapiens (Human))"
assigned_category = "TRUE"

[[record]]
compound_structure = "Cc1cnc2ccc(-c3c(N4CC5(COC5)C4)nc(N)n4nc(Cc5ncccc5F)nc34)cn12"
target_entity = "hA1 (Homo sapiens (Human))"
assigned_category = "FALSE"

[[record]]
compound_structure = "Cc1cc(-c2c(-c3ccc(F)cc3)nc(N)n3nc(Cc4cccc(Cl)n4)nc23)ccn1"
target_entity = "hA1 (Homo sapiens (Human))"
assigned_category = "TRUE"


Query: Could you please tell me whether IC50 recorded for Cc1cnc2ccc(-c3c(-c4ccc(F)cc4)nc(N)n4nc(C[C@H]5CCCN5C)nc34)cn12 is less than 30 nM?
Response: FALSE

Query: What about Cn1cc(-c2c(-c3ccc(C(F)(F)F)cc3)nc(N)n3nc(Cc4ncccc4F)nc23)ccc1=O ?
Response: TRUE

###

target-entity: hA2b (Homo sapiens (Human))
assay-comment: cAMP inhibition assay in hA2b/CHO cells
Assay type: cell-based
stated-conditions: adenosine stimulation, read-out: cAMP & FLIPR IC50 (nM) hA2b
readout-label: log10 of IC50 (log10 of the value in nM)
log10 IC50, nM

Solved cases (4 shown):
[[record]]
compound = "Cc1cnc2ccc(-c3c(-c4ccc(F)cc4)nc(N)n4nc(C[C@@H]5CCCN5C)nc34)cn12"
recorded_value = 1.97

[[record]]
compound = "CC(C)n1cc(-c2c(-c3ncco3)nc(N)n3nc(Cc4c(F)cccc4F)nc23)ccc1=O"
recorded_value = 1.65

[[record]]
compound = "Nc1nc(-c2ncco2)c(-c2ccnc(OC(F)F)c2)c2nc(Cc3ncccc3F)nn12"
recorded_value = 1.92

[[record]]
compound = "Cn1cc(-c2c(-c3ncco3)nc(N)n3nc(Cc4c(F)cccc4F)nc23)ccc1=O"
recorded_value = 2.23


Give log10 of IC50 for each listed item.
1. CNc1cc(-c2c(-c3ccc(F)cc3)nc(N)n3nc(Cc4ncccc4F)nc23)ccn1
2. Cn1cc(-c2c(-c3ncco3)nc(N)n3nc(Cc4ncccc4F)nc23)ccc1=O
3. Cc1cc(-c2c(-c3ncco3)nc(N)n3nc(Cc4ncccc4F)nc23)cc(Cl)n1
4. Nc1nc(-c2ccc(F)cc2)c(-c2ccnc(Cl)c2)c2nc(Cc3ncccc3F)nn12
5. Cn1cc(-c2c(-c3ccc(F)cc3)nc(N)n3nc(Cc4c(F)cccc4F)nc23)ccc1=O

Response:
1.08
2.43
3.46
1.81
1.75

Give log10 of IC50 for each listed item.
1. Cn1cc(-c2c(-n3nccn3)nc(N)n3nc(Cc4c(F)cccc4F)nc23)ccc1=O
2. Cc1cnc2ccc(-c3c(-c4ncco4)nc(N)n4nc(CC5CCOC5)nc34)cn12 (single isomer, unassigned) [Example 107-2]
3. Cc1cc(-c2c(-c3ncco3)nc(N)n3nc(Cc4c(F)cccc4F)nc23)cc(N)n1

Response:
1. 2.76
2. 2.67
3. 3.96

###

target-entity: hA2a (Homo sapiens (Human))
Sequence (P29274 whole entry): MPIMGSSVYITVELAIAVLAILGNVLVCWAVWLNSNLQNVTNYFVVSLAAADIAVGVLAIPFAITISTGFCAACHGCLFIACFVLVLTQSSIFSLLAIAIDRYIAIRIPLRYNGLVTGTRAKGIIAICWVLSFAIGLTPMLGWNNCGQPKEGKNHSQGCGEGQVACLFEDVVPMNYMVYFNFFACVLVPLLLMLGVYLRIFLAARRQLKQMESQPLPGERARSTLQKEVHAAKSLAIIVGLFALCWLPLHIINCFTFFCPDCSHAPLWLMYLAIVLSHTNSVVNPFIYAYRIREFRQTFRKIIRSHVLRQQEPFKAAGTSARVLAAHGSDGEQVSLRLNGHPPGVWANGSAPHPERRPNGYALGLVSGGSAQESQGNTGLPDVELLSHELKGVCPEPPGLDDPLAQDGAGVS
assay-comment: cAMP inhibition assay in hA2a/CHO cells
Assay type: cell-based
stated-conditions: adenosine stimulation, read-out: cAMP & FLIPR IC50 (nM) hA2a
Kindly state IC50 for each of the entries shown.

[[record]]
molecule = "Cc1cnc2ccc(-c3c(N4CCOCC4C)nc(N)n4nc(Cc5ncccc5F)nc34)cn12 (single isomer, unassigned; isomer 2)"
recorded_value = "73 nM"


Give IC50 for each listed item.
1. Cc1nccc(-c2c(-c3ccc(F)cc3)nc(N)n3nc(Cc4c(F)cccc4F)nc23)c1C
2. Cc1cc(-c2c(-c3ccc(F)cc3)nc(N)n3nc(Cc4cscn4)nc23)ccn1

Response:
174 nM
102 nM

Give IC50 for each listed item.
1. Cn1cc(-c2c(-c3ccc(F)cc3)nc(N)n3nc(Cc4nccs4)nc23)ccc1=O
2. Cc1cc(-c2c(-c3ccc(F)cc3)nc(N)n3nc(Cc4c(F)cccc4F)nc23)c(C)cn1
3. COc1cc(-c2c(-c3ccc(F)cc3)nc(N)n3nc(Cc4c(F)cccc4F)nc23)ccn1
4. Cc1cnc2ccc(-c3c(-c4ccc(F)cc4)nc(N)n4nc(C[C@H]5CCCN5C)nc34)cn12
5. Cn1cnc2ccc(-c3c(-c4ncco4)nc(N)n4nc(Cc5ncccc5F)nc34)cc21

Response:
7.9 nM
11 nM
1.9 nM
0.4 nM
1.8 nM

###

target-entity: hA2a (Homo sapiens (Human))
assay-comment: cAMP inhibition assay in hA2a/CHO cells
Format: cell-based
stated-conditions: adenosine stimulation, read-out: cAMP & FLIPR IC50 (nM) hA2a
readout-label: IC50 (nM)
One number for each entry, in nM.

[[record]]
molecule = "Nc1nc(-c2ccc(F)cc2)c(-c2ccc(=O)n(C3CCOC3)c2)c2nc(Cc3c(F)cccc3F)nn12 (centres unmarked) [Example 23]"
readout_label = "IC50"
recorded_value = 7.7


Give IC50 for each listed item.
1. COc1ccccc1-c1nc(N)n2nc(Cc3ncccc3F)nc2c1-c1ccc(=O)n(C)c1 [Example 98]
2. Cc1c(-c2c(-c3ccc(F)cc3)nc(N)n3nc(Cc4ncccc4F)nc23)ccc(=O)n1C [Example 66]

Response:
1. 88
2. 31

Give IC50 for each listed item.
1. Cc1cnc2ccc(-c3c(N4CCOC(C)C4)nc(N)n4nc(Cc5ncccc5F)nc34)cn12 (single isomer, unassigned; isomer 2) [Example 112-2]
2. Cn1cnc2ccc(-c3c(-c4ncco4)nc(N)n4nc(Cc5c(F)cccc5F)nc34)cc21 [Example 91]
3. Nc1nc(-c2ccc(F)cc2)c(-c2ccc3nccn3c2)c2nc(Cc3ncccc3OC(F)F)nn12 [Example 73]

Response:
3.2
2.6
0.1

Give IC50 for each listed item.
1. Cc1cnc2ccc(-c3c(N4CCC5(COC5)C4)nc(N)n4nc(Cc5ncccc5F)nc34)cn12 [Example 110]
2. Cn1cc(-c2c(-c3ccc(C#N)cc3)nc(N)n3nc(Cc4ncccc4F)nc23)ccc1=O [Example 57]

Response:
795
120
